Target Under Test: D3 (h) Dopamine (Homo sapiens, UniProt P35462)
Sequence (P35462 whole entry): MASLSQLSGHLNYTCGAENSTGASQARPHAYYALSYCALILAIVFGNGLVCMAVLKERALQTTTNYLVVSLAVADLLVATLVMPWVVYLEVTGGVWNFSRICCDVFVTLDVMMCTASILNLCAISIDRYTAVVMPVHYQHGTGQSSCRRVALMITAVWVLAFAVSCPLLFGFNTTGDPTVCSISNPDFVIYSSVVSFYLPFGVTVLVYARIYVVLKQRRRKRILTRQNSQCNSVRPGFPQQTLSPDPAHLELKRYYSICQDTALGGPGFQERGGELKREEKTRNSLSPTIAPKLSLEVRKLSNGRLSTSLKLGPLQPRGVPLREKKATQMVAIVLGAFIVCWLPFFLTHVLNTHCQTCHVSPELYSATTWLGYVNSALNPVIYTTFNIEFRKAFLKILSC
Test Summary: Cell-based functional GPCR assay, agonist effect (cAMP)
Protocol Conditions: read-out: EC50 (concentration producing a half-maximal agonist response)
Readout Kind: EC50 (µM)
State just the number; it will be interpreted in µM.

Exercise: Find the recorded EC50 belonging to Oc1cc(O)cc(Oc2c(O)cc(O)c3c2Oc2c(O)cc(O)cc2O3)c1 [Eckol, eckol] and report it.
Solution: 48.6
